Target: human transthyretin (TTR) (Homo sapiens, UniProt P02766)
pIC50: −log10 of the molar value.
parameter: pIC50

- Oc1cc(Br)c(Oc2ccc(Br)cc2Br)cc1Br [4-OH-BDE-49]: 7.91

---

Biological target: human albumin (ALB) (Homo sapiens, UniProt P02768)
Sequence (P02768 25-609): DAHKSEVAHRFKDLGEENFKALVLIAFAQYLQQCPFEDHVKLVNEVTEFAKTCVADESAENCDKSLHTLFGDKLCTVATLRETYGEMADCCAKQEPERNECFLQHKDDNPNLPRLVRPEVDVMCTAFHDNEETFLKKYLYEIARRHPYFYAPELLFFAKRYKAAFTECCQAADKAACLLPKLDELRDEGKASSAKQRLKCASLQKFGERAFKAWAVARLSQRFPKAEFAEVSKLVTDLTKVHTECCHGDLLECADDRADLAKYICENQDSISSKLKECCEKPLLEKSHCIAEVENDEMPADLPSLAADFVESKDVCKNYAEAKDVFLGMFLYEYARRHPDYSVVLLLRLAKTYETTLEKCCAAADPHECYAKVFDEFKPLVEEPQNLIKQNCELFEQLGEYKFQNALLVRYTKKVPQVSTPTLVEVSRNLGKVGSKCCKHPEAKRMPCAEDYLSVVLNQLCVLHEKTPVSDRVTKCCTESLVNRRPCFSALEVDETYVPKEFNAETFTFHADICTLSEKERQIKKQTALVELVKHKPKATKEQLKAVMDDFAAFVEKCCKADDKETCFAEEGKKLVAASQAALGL
pIC50: −log10 of the molar value.
parameter: pIC50

- Oc1cc(Br)c(Oc2ccc(Br)cc2Br)cc1Br [4-OH-BDE-49]: 8.94

---

Target: human transthyretin (TTR) (Homo sapiens, UniProt P02766)
parameter: Ki (nM)

- Oc1cc(Br)c(Oc2ccc(Br)cc2Br)cc1Br: 12.2
